molecular target: UniProt P49327; experiment: FAS thioesterase domain inhibitors, dose response, biochemical, kinetic fluorescence intensity (AID 624326); assay type: functional;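 also: rate of fluorescence rise from hydrolysis of a fluorogenic O-methyl fluorescein ester substrate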
Sequence (P49327 whole entry, the tested form may be a part): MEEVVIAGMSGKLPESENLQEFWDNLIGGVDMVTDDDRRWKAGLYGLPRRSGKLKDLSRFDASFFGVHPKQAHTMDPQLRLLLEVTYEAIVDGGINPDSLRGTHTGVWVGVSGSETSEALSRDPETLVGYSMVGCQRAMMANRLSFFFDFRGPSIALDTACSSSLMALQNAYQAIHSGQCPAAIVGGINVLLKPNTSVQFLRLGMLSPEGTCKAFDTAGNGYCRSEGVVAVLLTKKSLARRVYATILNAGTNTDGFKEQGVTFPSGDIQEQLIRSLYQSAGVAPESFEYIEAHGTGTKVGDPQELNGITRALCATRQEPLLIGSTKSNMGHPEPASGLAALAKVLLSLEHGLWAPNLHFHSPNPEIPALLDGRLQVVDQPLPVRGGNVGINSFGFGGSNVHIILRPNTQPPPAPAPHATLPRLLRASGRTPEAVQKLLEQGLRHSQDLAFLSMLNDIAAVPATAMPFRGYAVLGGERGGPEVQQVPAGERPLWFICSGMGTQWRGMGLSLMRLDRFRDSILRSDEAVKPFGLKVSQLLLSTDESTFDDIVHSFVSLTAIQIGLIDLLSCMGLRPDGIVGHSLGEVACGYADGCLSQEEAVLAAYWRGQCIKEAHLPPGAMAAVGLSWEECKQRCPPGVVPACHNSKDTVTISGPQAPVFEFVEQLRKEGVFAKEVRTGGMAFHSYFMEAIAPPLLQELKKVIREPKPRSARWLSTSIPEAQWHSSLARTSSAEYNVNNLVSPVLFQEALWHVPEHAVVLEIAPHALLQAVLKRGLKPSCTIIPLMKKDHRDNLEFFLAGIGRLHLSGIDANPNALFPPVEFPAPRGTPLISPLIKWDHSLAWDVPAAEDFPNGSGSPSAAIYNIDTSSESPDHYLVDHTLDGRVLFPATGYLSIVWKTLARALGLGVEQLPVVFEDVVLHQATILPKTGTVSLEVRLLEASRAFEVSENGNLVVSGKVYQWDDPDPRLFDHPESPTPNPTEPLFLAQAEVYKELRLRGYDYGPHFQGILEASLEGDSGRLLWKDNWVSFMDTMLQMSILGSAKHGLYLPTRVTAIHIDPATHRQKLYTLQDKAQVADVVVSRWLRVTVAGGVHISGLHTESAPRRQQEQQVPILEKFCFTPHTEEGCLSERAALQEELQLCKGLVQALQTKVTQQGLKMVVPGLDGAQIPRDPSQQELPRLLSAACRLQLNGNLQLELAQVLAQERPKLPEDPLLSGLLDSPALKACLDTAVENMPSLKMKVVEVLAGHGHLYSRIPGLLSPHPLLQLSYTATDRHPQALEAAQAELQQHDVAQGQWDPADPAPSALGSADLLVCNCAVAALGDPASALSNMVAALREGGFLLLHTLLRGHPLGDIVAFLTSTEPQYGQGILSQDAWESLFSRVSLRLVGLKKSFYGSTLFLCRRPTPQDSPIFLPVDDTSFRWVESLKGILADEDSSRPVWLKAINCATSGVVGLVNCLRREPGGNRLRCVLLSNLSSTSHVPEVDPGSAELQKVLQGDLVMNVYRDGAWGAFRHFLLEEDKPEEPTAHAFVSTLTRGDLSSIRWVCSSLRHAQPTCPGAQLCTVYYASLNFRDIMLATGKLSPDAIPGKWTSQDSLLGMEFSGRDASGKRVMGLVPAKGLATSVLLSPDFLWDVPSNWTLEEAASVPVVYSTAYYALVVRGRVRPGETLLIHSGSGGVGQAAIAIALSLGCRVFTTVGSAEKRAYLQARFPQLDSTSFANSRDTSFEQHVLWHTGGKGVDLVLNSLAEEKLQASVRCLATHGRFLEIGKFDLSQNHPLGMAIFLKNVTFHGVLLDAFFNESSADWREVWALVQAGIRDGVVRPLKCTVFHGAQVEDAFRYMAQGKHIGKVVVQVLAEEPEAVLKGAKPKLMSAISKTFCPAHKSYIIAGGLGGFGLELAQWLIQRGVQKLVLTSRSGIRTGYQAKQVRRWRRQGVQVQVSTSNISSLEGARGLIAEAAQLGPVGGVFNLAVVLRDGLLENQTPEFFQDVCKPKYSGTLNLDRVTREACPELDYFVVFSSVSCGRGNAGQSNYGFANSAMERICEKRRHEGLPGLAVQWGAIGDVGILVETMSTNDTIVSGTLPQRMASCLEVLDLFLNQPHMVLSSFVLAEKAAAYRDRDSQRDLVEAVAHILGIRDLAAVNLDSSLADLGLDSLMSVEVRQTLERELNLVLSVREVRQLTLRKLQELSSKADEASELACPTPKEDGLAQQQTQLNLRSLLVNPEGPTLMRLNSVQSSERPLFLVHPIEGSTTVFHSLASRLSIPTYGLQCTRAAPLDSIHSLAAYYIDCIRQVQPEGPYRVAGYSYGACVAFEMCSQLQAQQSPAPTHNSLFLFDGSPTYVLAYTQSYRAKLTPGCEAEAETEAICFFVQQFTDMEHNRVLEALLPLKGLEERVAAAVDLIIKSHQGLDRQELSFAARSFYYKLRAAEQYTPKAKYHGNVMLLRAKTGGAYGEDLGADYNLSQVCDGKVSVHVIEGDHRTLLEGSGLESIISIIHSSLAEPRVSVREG
Activity calls are given as the source filed them.
Outcomes: active, inactive

# COMPOUND, GROUP
records = [
    ("Cc1ccc(C(=O)CN(CCCC(N)=O)S(=O)(=O)c2ccc([N+](=O)[O-])cc2)cc1", "active"),
    ("COc1ccc(NC(=O)CN(c2ccc([N+](=O)[O-])cc2)S(=O)(=O)c2ccccc2)cc1", "active"),
    ("O=C(NNc1c(Cl)cc(Cl)cc1Cl)c1cccc([N+](=O)[O-])c1", "active"),
    ("Cc1ccc(N2C(=O)C3CC(c4ccccc4)=C4C5C=CC(C6C(=O)N(c7ccc(C)cc7C)C(=O)C56)C4C3C2=O)c(C)c1 (stereo unspecified)", "active"),
    ("O=C(CC(=O)N/N=C\\c1ccc([N+](=O)[O-])cc1)NCCc1ccccc1", "inactive"),
    ("CC(C)(C)SCCNC(=O)c1ccc(Cl)c([N+](=O)[O-])c1", "active"),
]

----------
Entries and their measured AC50 follow.
assay: P. falciparum Dd2 growth inhibitors, dose response, SYBR Green, dry powder samples (AID 1159566); type: functional, cell-based;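 also: potency for growth inhibition with lower SYBR green DNA signal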
Activity calls are given as the source filed them.

# MOLECULE, AC50
rows = [
    ("OC[C@@H]1[C@H](c2ccc(-c3ccccc3)cc2)[C@H]2CN(CCC(F)(F)F)CCCCN12", "623 nM (active)"),
    ("COc1ccccc1CN1CC2(C1)[C@H](c1ccccc1)[C@@H](CO)N2Cc1ccccc1", "477 nM (active)"),
    ("CC(C)NC(=O)Nc1ccc2c(c1)C(=O)N(C)[C@H]1CC[C@H](CC(=O)Nc3ccccc3)O[C@H]1CO2", "1260 nM (active)"),
    ("COc1ccc(-c2ccc([C@H]3[C@@H](C#N)N(C(=O)NC4CCCC4)[C@@H]3CO)cc2)cc1", "230 nM (active)"),
    ("COc1cccc(S(=O)(=O)N2CCC3(CC2)CN[C@H](CO)c2[nH]c4cc(OC)ccc4c23)c1", "2530 nM (active)"),
]

----------
Target: UniProtKB Q96LD8
Sequence (Q96LD8 whole entry): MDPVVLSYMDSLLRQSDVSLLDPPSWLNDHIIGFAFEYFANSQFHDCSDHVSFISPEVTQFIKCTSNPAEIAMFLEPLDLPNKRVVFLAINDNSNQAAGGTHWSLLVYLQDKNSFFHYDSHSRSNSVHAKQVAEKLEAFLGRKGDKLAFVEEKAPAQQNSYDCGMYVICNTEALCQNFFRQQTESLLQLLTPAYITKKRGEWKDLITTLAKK
Type: functional
Activity calls are given as the source filed them.
The entries below come with measured IC50 values attached.

# COMPOUND, IC50
measured = [
    ("CCOC(=O)/C=C(\\C)N1N=C(c2ccccc2)CC1c1ccccc1 (centres undefined)", "36.1 µM (active)"),
    ("Oc1nc(Nc2ccccc2)cc2ccccc12", "0.899 µM (active)"),
    ("CC(=O)Nc1cccc(-c2csc(Nc3ccc(C)cn3)n2)c1", "17.5 µM (active)"),
    ("O=C1/C(=C/N(C(=O)c2ccco2)c2ccc(Br)cc2)Sc2ccccc21", "24.7 µM (active)"),
]
